Target: human adenosine A2A receptor (Homo sapiens, UniProt P29274)
Construct: expressed in transfected cells; host or cells: CHO cells, semliki forest virus expression system; membrane preparation
Sequence (P29274 whole entry): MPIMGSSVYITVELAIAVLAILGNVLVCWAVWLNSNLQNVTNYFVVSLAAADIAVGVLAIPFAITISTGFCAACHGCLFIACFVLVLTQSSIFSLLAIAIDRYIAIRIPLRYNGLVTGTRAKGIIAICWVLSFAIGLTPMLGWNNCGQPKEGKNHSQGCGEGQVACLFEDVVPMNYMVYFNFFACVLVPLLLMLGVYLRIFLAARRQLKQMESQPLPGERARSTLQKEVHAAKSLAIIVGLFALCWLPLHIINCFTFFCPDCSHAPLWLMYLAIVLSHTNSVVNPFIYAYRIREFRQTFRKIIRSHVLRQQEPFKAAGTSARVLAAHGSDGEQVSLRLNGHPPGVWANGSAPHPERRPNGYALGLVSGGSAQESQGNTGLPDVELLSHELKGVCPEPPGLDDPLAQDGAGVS
Assay: Human adenosine A2A receptor [3H]-SCH-58261 binding assay
Conditions: human A2a receptor, membranes of CHO cells, [3H]-SCH-58261; read-out: pKi (affinity to the human A2a receptor) (converted)
metric_name: Ki (nM)

Some solved cases for reference:
N#Cc1c(OCc2ccc3ccccc3c2)nc(N)nc1-c1ccco1; 2.51
Nc1nc(SCc2ccccc2)c(Cl)c(-c2ccco2)n1; 9.12
CCCCSc1nc(N)nc(-c2ccco2)c1C#N; 4.57
Cc1ccc(COc2nc(N)nc(-c3ccc(Cl)o3)c2C#N)nc1; 5.62
N#Cc1c(OCc2ccccn2)nc(N)nc1-c1ccco1; 2.09
N#Cc1c(NCc2ccccn2)nc(N)nc1-c1ccco1; 5.89
N#Cc1c(NCc2cccc(C(F)(F)F)c2)nc(N)nc1-c1ccco1; 2.4
Cc1ccc(COc2nc(N)nc(-c3ccco3)c2C#N)nc1; 2.63

(A) Cc1cnc(CNc2nc(N)nc(-c3ccco3)c2C#N)c(C)c1
(B) N#Cc1c(/C=C/c2ccccc2)nc(N)nc1-c1ccco1
(C) Cc1ccc(CNc2nc(N)nc(-c3ccco3)c2C#N)cc1
(D) Cc1coc(-c2nc(N)nc(SCCc3ccccn3)c2C#N)c1
[ask] Place the items in sequence of falling Ki. Please respond with the labels ordered as the question requires.
[reply] C, B, A, D

* * *

Target: human adenosine A2A receptor (Homo sapiens, UniProt P29274)
Construct: expressed in transfected cells; host or cells: CHO cells, semliki forest virus expression system; membrane preparation
Experiment: Human adenosine A2A receptor [3H]-SCH-58261 binding assay
Settings: human A2a receptor, membranes of CHO cells, [3H]-SCH-58261; read-out: pKi (affinity to the human A2a receptor) (converted)
metric_name: Ki (nM)

N#Cc1c(NCc2ccc(Br)cc2)nc(N)nc1-c1ccco1 [Example 325]; 5.5
N#Cc1c(OCCc2ccccc2)nc(N)nc1-c1ccccc1 [Example 104]; 3.98
N#Cc1c(NCc2ccccc2Br)nc(N)nc1-c1ccco1 [Example 359]; 0.631
Cc1ccnc(COc2nc(N)nc(-c3ccco3)c2C#N)c1 [Example 373]; 5.13
N#Cc1c(OCCc2ccccn2)nc(N)nc1-c1cccc(F)c1 [Example 405]; 7.41
N#Cc1c(SCCCc2ccccc2)nc(N)nc1-c1ccccc1 [Example 85]; 7.94
N#Cc1c(OCc2ccccc2)nc(N)nc1-c1ccco1 [Example 47]; 3.8
N#Cc1c(OCc2cccnc2)nc(N)nc1-c1ccco1 [Example 219]; 5.89
N#Cc1c(SCc2ccccc2)nc(N)nc1-c1ccco1 [Example 52]; 3.98
Nc1nc(OCCCc2ccccc2)c(Br)c(-c2ccco2)n1 [Example 230]; 1.66

(1) N#Cc1c(NCc2ncc(C(F)(F)F)cc2Cl)nc(N)nc1-c1ccco1 [Example 400]
(2) N#Cc1c(NCCSc2ccccc2)nc(N)nc1-c1ccco1 [Example 302]
[ask] Sort 1 and 2 by Ki descending and give the first. API: response body contains the label of the selected item.
[reply] 2

* * *

Biological target: human adenosine A2A receptor (Homo sapiens, UniProt P29274)
Construct: expressed in transfected cells; host or cells: CHO cells, semliki forest virus expression system; membrane preparation
Assay: Human adenosine A2A receptor [3H]-SCH-58261 binding assay
Conditions: human A2a receptor, membranes of CHO cells, [3H]-SCH-58261; read-out: pKi (affinity to the human A2a receptor) (converted)
metric_name: Ki (nM)

Some solved cases for reference:
N#Cc1c(NCc2ccc3ccccc3c2)nc(N)nc1-c1ccco1 [Example 298]; 5.89
Nc1nc(SCCc2ccccn2)c(Cl)c(-c2ccco2)n1 [Example 354]; 4.9
Cc1cccnc1COc1cc(N)nc(-c2ccco2)c1C#N [Example 383]; 1.91

(1) Nc1nc(OCCCc2ccccc2)c(I)c(-c2ccco2)n1 [Example 267]
(2) N#Cc1c(NCc2cc3ccccc3cn2)nc(N)nc1-c1ccco1 [Example 367]
(3) N#Cc1c(OCc2ccccn2)nc(N)nc1-c1ccccc1 [Example 105]
(4) Cc1cccnc1COc1nc(N)nc(-c2ccco2)c1C#N [Example 361]
[ask] Could you please order the items by Ki, going from the lowest number to the highest? Please respond with the labels ordered as the question requires.
[reply] 4, 2, 1, 3

(1) N#Cc1coc(-c2nc(N)nc(SCCc3ccccn3)c2C#N)c1 [Example 535]
(2) N#Cc1c(OCCc2ccccn2)nc(N)nc1-c1ccco1 [Example 241]
(3) N#Cc1c(-c2ccco2)nc(N)nc1N1CCc2ccccc2C1 [Example 336]
[ask] Place the items in sequence of falling Ki. Please respond with the labels ordered as the question requires.
[reply] 3, 1, 2
(3: 8.13 nM, 1: 3.98 nM, 2: 2.19 nM)

(1) N#Cc1c(OCC=Cc2ccccc2)nc(N)nc1-c1ccco1 [Example 278]
(2) N#Cc1c(NCc2ccc(C(F)(F)F)cc2)cc(N)nc1-c1ccco1 [Example 357]
(3) Cc1ccccc1CNc1nc(N)nc(-c2ccco2)c1C#N [Example 288]
(4) Cc1ccc(CNc2nc(N)nc(-c3ccco3)c2C#N)cc1C [Example 347]
[ask] Place the items in sequence of falling Ki. Please respond with the labels ordered as the question requires.
[reply] 2, 1, 3, 4

(A) N#Cc1c(OCc2ccccn2)cc(N)nc1-c1ccco1 [Example 355]
(B) N#Cc1c(NCCNc2ccccn2)nc(N)nc1-c1ccco1 [Example 330]
[ask] Decide: A or B , by lowest recorded Ki. API: response body contains the label of the selected item.
[reply] A

(I) Nc1nc(OCCCc2ccccc2)c(Cl)c(-c2ccco2)n1 [Example 321]
(II) N#Cc1c(OCCNc2ccccc2)nc(N)nc1-c1ccco1 [Example 231]
[ask] Decide: I or II , by lowest recorded Ki. API: response body contains the label of the selected item.
[reply] I
